# assay protocol: log P determination by HPLC (reversed-phase C18, EEC Directive 79/831 Annex V.A8)
# Type: physicochemical
# measurement conditions: reversed-phase C18 HPLC column, pH 2.3, pH 2.3, 0.1% aqueous phosphoric acid/acetonitrile gradient, 43° C
experimental endpoint: chromatographic logP

A. O=Cc1ccc(-c2ccc(C3CCC(c4c(F)cccc4F)=N3)cc2)nc1 (stereo not drawn) [Example 221]
B. CCCN(C(=O)C(C)(C)C)c1ccc(-c2ccc(C3CCC(c4c(F)cccc4F)=N3)cc2)nn1 (stereo not drawn) [Example 62]
-- ask Sorting ascending by chromatographic logP, which comes first: A or B ? State your choice using its label.
-- reply A
(A: 1.95, B: 2.95)

----------
# assay protocol: log P determination by HPLC (reversed-phase C18, EEC Directive 79/831 Annex V.A8)
# Format: physicochemical
# measurement conditions: reversed-phase C18 HPLC column, pH 2.3, pH 2.3, 0.1% aqueous phosphoric acid/acetonitrile gradient, 43° C
experimental endpoint: chromatographic logP

Example entries begin here.
Short answer for Fc1cccc(F)c1C1=NC(c2ccc(-c3cnc(N4CCCCC4)nc3)cc2)CC1 (centres unmarked) : chromatographic logP was 3.4

Short answer for CC(C)(C)C(=O)N(c1ccc(-c2ccc(C3CCC(c4c(F)cccc4F)=N3)cc2)nn1)C1CCCCC1 (centres unmarked) : chromatographic logP was 3.56

Short answer for CC(C)Oc1ccc(-c2ccc(C3CCC(c4c(F)cccc4F)=N3)cc2)nn1 (centres unmarked) : chromatographic logP was 2.5

P. Fc1cccc(F)c1C1=NC(c2ccc(-c3cnc(-n4ccnc4)nc3)cc2)CC1 (centres unmarked)
Q. Fc1cccc(F)c1C1=NC(c2ccc(-c3cnc(N4CCN(Cc5ccccc5)CC4)nc3)cc2)CC1 (centres unmarked)
R. Fc1cccc(F)c1C1=NC(c2ccc(-c3ccc(Br)cn3)cc2)CC1 (centres unmarked)
-- ask Order the items by recorded chromatographic logP; the first position goes to the largest value. Please list the labels according to the requested order.
-- reply R, Q, P
(R: 3.07, Q: 1.92, P: 1.25)

----------
# assay protocol: log P determination by HPLC (reversed-phase C18, EEC Directive 79/831 Annex V.A8)
# Format: physicochemical
# measurement conditions: reversed-phase C18 HPLC column, pH 2.3, pH 2.3, 0.1% aqueous phosphoric acid/acetonitrile gradient, 43° C
experimental endpoint: chromatographic logP

P. Fc1cccc(F)c1C1=NC(c2ccc(-c3ccccn3)cc2)CC1 (stereo not drawn) [Example 4]
Q. Cc1cnc(-c2ccc(C3CCC(c4c(F)cccc4F)=N3)cc2)nc1 (stereo not drawn) [Example 177]
-- ask Sorting ascending by chromatographic logP, which comes first: P or Q ? State your choice using its label.
-- reply P
(P: 1.24, Q: 2.02)

----------
# assay protocol: log P determination by HPLC (reversed-phase C18, EEC Directive 79/831 Annex V.A8)
# Type: physicochemical
# measurement conditions: reversed-phase C18 HPLC column, pH 2.3, pH 2.3, 0.1% aqueous phosphoric acid/acetonitrile gradient, 43° C
experimental endpoint: chromatographic logP

Short answer for CCOC(=O)c1cncc(-c2ccc(C3CCC(c4c(F)cccc4F)=N3)cc2)c1 (stereo not shown) : chromatographic logP was 2.42

Short answer for COCCN(Cc1ccc(-c2ccc(C3CCC(c4c(F)cccc4F)=N3)cc2)nc1)S(=O)(=O)C(F)(F)F (stereo not shown) : chromatographic logP was 3.21

Short answer for N#Cc1cccnc1N1CCN(c2ccc(-c3ccc(C4CCC(c5c(F)cccc5F)=N4)cc3)cn2)CC1 (stereo not shown) : chromatographic logP was 3.09

Short answer for Fc1cccc(F)c1C1=NC(c2ccc(-c3ccc(Br)nc3)cc2)CC1 (stereo not shown) : chromatographic logP was 2.69

----------
# assay protocol: log P determination by HPLC (reversed-phase C18, EEC Directive 79/831 Annex V.A8)
# Format: physicochemical
# measurement conditions: reversed-phase C18 HPLC column, pH 2.3, pH 2.3, 0.1% aqueous phosphoric acid/acetonitrile gradient, 43° C
experimental endpoint: chromatographic logP

Example entries begin here.
Short answer for "CCCN(CC)c1ncc(-c2ccc([C@H]3CCC(c4c(F)cccc4F)=N3)cc2)cn1" : chromatographic logP was 3.58

Short answer for N#Cc1ccccc1N1CCN(c2ncc(-c3ccc(C4CCC(c5c(F)cccc5F)=N4)cc3)cn2)CC1 (centres unmarked) : chromatographic logP was 3.78

I. Fc1cccc(F)c1C1=NC(c2ccc(-c3cnc(N4CCSCC4)nc3)cc2)CC1 (centres unmarked)
II. CN(c1ccc(-c2ccc(C3CCC(c4c(F)cccc4F)=N3)cc2)nn1)S(=O)(=O)C(F)(F)F (centres unmarked)
-- ask // pick larger chromatographic logP from pair: I vs II State your choice using its label.
-- reply I

1. CCCN(CCC)C(=O)c1ccc(-c2ccc(C3CCC(c4c(F)cccc4F)=N3)cc2)nc1 (centres unmarked)
2. CN1CCN(c2ncc(-c3ccc(C4CCC(c5c(F)cccc5F)=N4)cc3)cn2)CC1 (centres unmarked)
-- ask Sorting ascending by chromatographic logP, which comes first: 1 or 2 ? State your choice using its label.
-- reply 2

a. Fc1cccc(F)c1C1=NC(c2ccc(-c3cnc(OC(C(F)(F)F)C(F)(F)F)nc3)cc2)CC1 (centres unmarked)
b. O=C1CCCN1c1ccc(-c2ccc(C3CCC(c4c(F)cccc4F)=N3)cc2)nn1 (centres unmarked)
-- ask // pick larger chromatographic logP from pair: a vs b State your choice using its label.
-- reply a

----------
# assay protocol: log P determination by HPLC (reversed-phase C18, EEC Directive 79/831 Annex V.A8)
# Format: physicochemical
# measurement conditions: reversed-phase C18 HPLC column, pH 2.3, pH 2.3, 0.1% aqueous phosphoric acid/acetonitrile gradient, 43° C
experimental endpoint: chromatographic logP

Short answer for Fc1cccc(F)c1C1=NC(c2ccc(-c3cnc(OCC4CC4)nc3)cc2)CC1 (centres unmarked) : chromatographic logP was 2.74

Short answer for CCN(Cc1ccc(-c2ccc(C3CCC(c4c(F)cccc4F)=N3)cc2)nc1)S(=O)(=O)C(F)(F)F (centres unmarked) : chromatographic logP was 3.35

Short answer for CCCN(CC)c1ncc(-c2ccc(C3CCC(c4c(F)cccc4F)=N3)cc2)cn1 (centres unmarked) : chromatographic logP was 3.57

Short answer for Fc1cccc(F)c1C1=NC(c2ccc(-c3cnc(OC4CCCC4)nc3)cc2)CC1 (centres unmarked) : chromatographic logP was 3.21

Short answer for CC(C)(C)C(=O)N(c1ccc(-c2ccc(C3CCC(c4c(F)cccc4F)=N3)cc2)nn1)C1CC1 (centres unmarked) : chromatographic logP was 2.53

Short answer for CCN(Cc1ccc(Cl)nc1)c1ncc(-c2ccc(C3CCC(c4c(F)cccc4F)=N3)cc2)cn1 (centres unmarked) : chromatographic logP was 3.6

Short answer for CCON=C1CCN(c2ncc(-c3ccc(C4CCC(c5c(F)cccc5F)=N4)cc3)cn2)CC1 (centres unmarked) : chromatographic logP was 3.1

Short answer for Fc1cccc(F)c1C1=NC(c2ccc(-c3ccc(Cl)cn3)cc2)CC1 (centres unmarked) : chromatographic logP was 2.86

----------
# assay protocol: log P determination by HPLC (reversed-phase C18, EEC Directive 79/831 Annex V.A8)
# Format: physicochemical
# measurement conditions: reversed-phase C18 HPLC column, pH 2.3, pH 2.3, 0.1% aqueous phosphoric acid/acetonitrile gradient, 43° C
experimental endpoint: chromatographic logP

Example entries begin here.
Short answer for CCC(C)N1CCN(c2ncc(-c3ccc(C4CCC(c5c(F)cccc5F)=N4)cc3)cn2)CC1 (centres unmarked) : chromatographic logP was 1.65

Short answer for "CC(C)Sc1ccc(Cl)nn1" : chromatographic logP was 2.34

Short answer for Fc1cccc(F)c1C1=NC(c2ccc(-c3cnc(-n4cncn4)nc3)cc2)CC1 (centres unmarked) : chromatographic logP was 1.55

I. Fc1ccc(CN2CCN(c3ccc(-c4ccc(C5CCC(c6c(F)cccc6F)=N5)cc4)cn3)CC2)cc1 (centres unmarked)
II. Fc1cccc(F)c1C1=NC(c2ccc(-c3cnc(NC4CCCC4)nc3)cc2)CC1 (centres unmarked)
-- ask Sorting ascending by chromatographic logP, which comes first: I or II ? State your choice using its label.
-- reply I
(I: 1.64, II: 2.58)
